Listed below: ED50 values for each entry.
system: Rattus norvegicus; assay: Antiallergic activity in po dosed Sprague-Dawley rat assessed as inhibition of egg albumin-induced passive cutaneous anaphylaxis administered 5 mins prior to egg albumin challenge measured after 30 mins by Evan blue dye leakage assay; type: functional; conditions: read-out: ID50 (the source's name)
Please give a number only; it is taken to be in mg/kg.

Input: Hello, please tell me recorded ED50 for this one: `Cc1ccc2occ(-c3nnn[nH]3)c(=O)c2c1`
Output: 10

* * *

system: Rattus norvegicus; assay: Antiallergic activity in po dosed Sprague-Dawley rat assessed as inhibition of egg albumin-induced passive cutaneous anaphylaxis administered 5 mins prior to egg albumin challenge measured after 30 mins by Evan blue dye leakage assay; type: functional; settings: read-out: ID50 (the source's name)
readout_label: ED50 (mg/kg)
Please give a number only; it is taken to be in mg/kg.

Reference set (3 entries):
CCc1ccc2occ(-c3nnn[nH]3)c(=O)c2c1
6.9
O=c1c(-c2nnn[nH]2)coc2ccc3ccccc3c12
8.5
O=c1c(-c2nnn[nH]2)coc2ccccc12
5.3

Here's the next entry for you.
Input: Hello, please tell me recorded ED50 for this one: `COc1ccc2occ(-c3nnn[nH]3)c(=O)c2c1`
Output: 7
